target: GluA1o-γ8 (Homo sapiens (Human), UniProt P42261+Q8WXS5); assay: Calcium flux assay (FLIPR), inhibition of TARP γ8 dependent AMPA receptor activity; conditions: HEK293 cells stably expressing GRIA1o-CACNG8 fusion construct; calcium flux following 15 μM glutamate; negative log of IC50 in molar
Sequence (P42261 other isoform, or with tags, fused parts or gaps): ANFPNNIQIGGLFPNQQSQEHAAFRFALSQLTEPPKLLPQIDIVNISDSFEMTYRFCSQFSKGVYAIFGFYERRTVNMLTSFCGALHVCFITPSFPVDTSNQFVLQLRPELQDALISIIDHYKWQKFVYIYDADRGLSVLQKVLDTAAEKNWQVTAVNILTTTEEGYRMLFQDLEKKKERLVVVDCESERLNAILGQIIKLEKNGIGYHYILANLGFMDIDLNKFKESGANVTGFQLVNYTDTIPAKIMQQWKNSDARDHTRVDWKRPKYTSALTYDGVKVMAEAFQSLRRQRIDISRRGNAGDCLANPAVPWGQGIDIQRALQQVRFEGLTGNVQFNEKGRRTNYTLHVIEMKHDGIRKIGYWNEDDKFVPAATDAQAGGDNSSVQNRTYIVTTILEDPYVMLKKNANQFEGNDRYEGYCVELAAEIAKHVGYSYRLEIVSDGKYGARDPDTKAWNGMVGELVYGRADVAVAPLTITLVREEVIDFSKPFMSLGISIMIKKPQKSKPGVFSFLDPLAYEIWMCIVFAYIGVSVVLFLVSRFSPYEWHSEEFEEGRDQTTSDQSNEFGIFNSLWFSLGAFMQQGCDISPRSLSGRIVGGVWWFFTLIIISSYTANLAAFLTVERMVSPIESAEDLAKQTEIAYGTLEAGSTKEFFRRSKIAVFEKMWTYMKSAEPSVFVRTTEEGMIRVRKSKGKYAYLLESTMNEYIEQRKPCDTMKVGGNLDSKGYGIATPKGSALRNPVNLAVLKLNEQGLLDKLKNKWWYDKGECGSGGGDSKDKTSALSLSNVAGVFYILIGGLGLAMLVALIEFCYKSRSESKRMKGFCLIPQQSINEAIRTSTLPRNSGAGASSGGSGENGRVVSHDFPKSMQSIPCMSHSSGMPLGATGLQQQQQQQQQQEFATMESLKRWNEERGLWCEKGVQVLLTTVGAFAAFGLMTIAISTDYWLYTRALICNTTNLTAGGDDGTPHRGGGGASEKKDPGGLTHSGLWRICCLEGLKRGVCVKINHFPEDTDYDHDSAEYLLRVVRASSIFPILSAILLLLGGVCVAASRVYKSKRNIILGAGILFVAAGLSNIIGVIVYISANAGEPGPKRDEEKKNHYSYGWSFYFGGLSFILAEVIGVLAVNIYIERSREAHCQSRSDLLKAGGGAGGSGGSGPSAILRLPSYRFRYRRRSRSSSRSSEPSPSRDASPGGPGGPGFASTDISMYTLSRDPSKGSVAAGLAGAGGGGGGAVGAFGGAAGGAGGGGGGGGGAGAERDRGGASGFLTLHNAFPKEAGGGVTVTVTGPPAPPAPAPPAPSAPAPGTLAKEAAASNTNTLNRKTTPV
Each entry below lists one item and its recorded IC50 value.
The answer is to be given in nM; state only the numeric part.

>>> result_number("Fc1ccc(-c2ccn3cc(C(F)(F)F)nc3c2-c2ccc3[nH]ncc3c2)cc1")
3.16

Would you mind telling me what IC50 value was observed for `FC(F)c1cn2cnc(C(F)(F)F)c(-c3cc(Cl)c4[nH]ncc4c3)c2n1` ?
0.398

Would you mind telling me what IC50 value was observed for `FC(F)(F)c1cn2cnc(C(F)(F)F)c(-c3cc(Cl)c4[nH]ncc4c3)c2n1` ?
0.316

Would you mind telling me what IC50 value was observed for `Cc1cc(-c2c(C)ccn3cc(C(F)(F)F)nc23)cc2c1NC(=O)C2` ?
1

Would you mind telling me what IC50 value was observed for `Cc1cc(-c2c(C(F)(F)F)ncn3cc(C(F)F)nc23)cc2cn[nH]c12` ?
2

---

Each entry below lists one item and its recorded pIC50 value.
target: GluA1o-γ8 (Homo sapiens (Human), UniProt P42261+Q8WXS5); assay: Calcium flux assay (FLIPR), inhibition of TARP γ8 dependent AMPA receptor activity; assay type: cell-based; conditions: HEK293 cells stably expressing GRIA1o-CACNG8 fusion construct; calcium flux following 15 μM glutamate; negative log of IC50 in molar

The following molecules have reported results that may help.
>>> result("Cc1cc(-c2c(C)ccn3cc(C(C)(C)C)nc23)cc2c1NC(=O)C2 [Example 54]")
7.1
>>> result("Cc1cc(-c2c(C(F)(F)F)ccn3nc(C(F)(F)F)nc23)cc2c1NC(=O)C2 [Example 22]")
9.1
>>> result("Fc1ccc(-c2ccn3nc(C(F)(F)F)nc3c2-c2ccc3[nH]nc(F)c3c2)cc1 [Example 45]")
7.6
>>> result("O=C1Cc2cc(-c3c(C(F)(F)F)ncn4cc(C5CC5)nc34)cc(Cl)c2N1 [Example 69]")
9.5
>>> result("Cc1cc(-c2c(C#N)ccn3nc(C(F)(F)F)nc23)cc2cn[nH]c12 [Example 10]")
7.7

Would you mind telling me what pIC50 value was observed for FC(F)(F)c1nc2c(-c3cc(Cl)c4[nH]ncc4c3)c(Cl)ccn2n1 [Example 41] ?
9.0

---

molecular target: GluA1o-γ8 (Homo sapiens (Human), UniProt P42261+Q8WXS5); test: Calcium flux assay (FLIPR), inhibition of TARP γ8 dependent AMPA receptor activity; assay type: cell-based; settings: HEK293 cells stably expressing GRIA1o-CACNG8 fusion construct; calcium flux following 15 μM glutamate; negative log of IC50 in molar
Tick met if pIC50 is 9 or greater. Tick not met if pIC50 is less than 9.

Reference set, count: 4
>>> class_label("Cc1nc2c(-c3cc(Cl)c4[nH]ncc4c3)c(C(F)(F)F)ccn2n1")
"not met"
>>> class_label("Fc1ccc(-c2ccn3nc(C(F)(F)F)nc3c2-c2cc(Cl)c3[nH]ncc3c2)cc1")
"met"
>>> class_label("O=c1[nH]c2ccc(-c3c(C(F)(F)F)ccn4nc(C(F)(F)F)nc34)cc2s1")
"not met"
>>> class_label("Cc1cc(-c2c(C)ccn3cc(-c4ccccc4)nc23)cc2c1NC(=O)C2")
"not met"

Read the next record carefully.
Form field: pIC50 at least 9? Entry: `COCc1nc2c(-c3cc(C)c4[nH]ncc4c3)c(-c3ccc(F)cc3)ccn2n1`
not met
